- target-entity: T1, human IL-2Rβ (CD122 protein, Fc Tag) (27-239) (human, UniProt P14784 27-239)
- T1 construct: range 27-239; Bought protein; also called hu-IL-2Rβ subunit; IL-2Rβ subunit; not shown: Fc tag of the bought protein
- T1 sequence (looked up): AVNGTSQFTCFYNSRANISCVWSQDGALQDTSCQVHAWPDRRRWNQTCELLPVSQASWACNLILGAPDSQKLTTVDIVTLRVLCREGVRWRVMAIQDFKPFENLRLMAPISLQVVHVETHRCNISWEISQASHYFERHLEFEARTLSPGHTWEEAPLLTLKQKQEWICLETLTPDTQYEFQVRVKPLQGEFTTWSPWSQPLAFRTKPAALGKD
- assay-protocol: phage ELISA competition
pIC50: −log10 of the molar value. Bridge positions count the residues as written; N and C are the ends. Ends that are not written are not given here.
assay-metric: pIC50

Here are 5 binders together with their reported answers.
{"columns": ["binder", "pIC50"],
 "data": [
  ["ARTQGWYDCLFAQVGELCDL [SEQ ID NO 2772]", "> 4.00"],
  ["WYPCWIAQVGELCDLDEVSHGR [SEQ ID NO 2770]", "> 4.00"],
  ["KGSSWFPCYFAQVGDLCDLY (disulfide 8-17 (inferred)) [SEQ ID NO 2817]", "> 4.00"],
  ["WKPCWMARLGELCDIEDTKVNA [SEQ ID NO 2615]", "> 4.00"],
  ["VRAWYPCWIARLGELCDLEVD (disulfide 7-16 (inferred)) [SEQ ID NO 2580]", "> 4.00"]
]}

## Task Query (binder): QITDSGWYPCWVAKVGELCDMD (disulfide 10-19 (inferred)) [SEQ ID NO 2825] ; field requested: pIC50
## Result > 4.00

## Task Query (binder): WEWYDCLMAQVGELCDFEGN [SEQ ID NO 2847] ; field requested: pIC50
## Result > 4.00
